# EXPERIMENTAL_PROTOCOL: Cytotoxicity against patient-derived human mononuclear cells assessed as cell growth inhibition incubated for 72 hrs by FMCA assay
# Format: toxicity, cell-based, Mononuclear cell line
REPORTED_PROPERTY: IC50 at 72 h (µM)

COMPOUND: O=c1[nH]cc(F)c(=O)[nH]1 [FLUOROURACIL]
OBS_VALUE: 430

###

# EXPERIMENTAL_PROTOCOL: Anticancer activity against patient-derived human Colorectal tumor cells assessed as tumor growth inhibition incubated for 72 hrs by FMCA assay
# Format: functional, cell-based
# TEST_PARAMETERS: Colorectal cancer cell
pIC50: −log10 of the molar value.
Item-by-item account of pIC50

COMPOUND: O=c1[nH]cc(F)c(=O)[nH]1 [FLUOROURACIL]
pIC50: 3.12
//
COMPOUND: CCc1c2c(nc3ccc(OC(=O)N4CCC(N5CCCCC5)CC4)cc13)-c1cc3c(c(=O)n1C2)COC(=O)[C@]3(O)CC [IRINOTECAN]
pIC50: 4.05
